Recorded values, source the supplement of paper PMC10201428.

# Test system: VchCAST RNA-guided transposition machinery (E. coli BL21(DE3) host, lacZ target)
# assay: relative integration efficiency (T-RL orientation) vs wild-type transposon end (log2 (normalized fold change)); transposon end mutated: left end; higher = more efficient transposition
parameter: relative integration efficiency (log2)

INSERT INTO results (seq_text, op, numeric_readout) VALUES
  ('AATGTTGTTGATGCAAAACGCCCTGTCGCGGGCCGCCGGCGGGCGCCGACTACCAGGCCAACACCCCACCAACGCGCGGTCGCGAGACACCCCACCAACGCCTGGTCGCGGGGGTGTCCGATCTGATTTCAGCAAAACTACTGCAGTAAGAA', '<', -10),
  ('AATGTTGTTGATGCAACCATAAAGTGATATTTCCGCCGGCGGGCGCCGACTACCAGGCCAACACCCCACCAACGCGCGGTCGCGAGACACCCCACCAACGCCTGGTCGCGGGGGTGTCCGATCTGATTTCAGCAAAACTACTGCAGTAAGAA', '=', -6.65),
  ('AATGTTGTTGATGCAACCATAAAGTGATATTTAATAATTATTTATAATCAGCAACTTAACCACAAAACAACCATATATTGATATCACAAAACAACCATAAGTTGATATTTTTGTGAATCGAGTATTTCAGCAAAACTACTGCAGTAAGAAAG', '=', -2.64),
  ('AATGTTGTTGATGCAACCATAAAGTGATATTTAATAACTTCGTATAGTATACATTATACGAAGTTATCAACCATATATTGATATCTCACAAAACAACCATAAGTTGATATTTTTGTGAATCGAGTATTTCAGCAAAACTACTGCAGTAAGAA', '=', -2.92);

----------
# Tested on: VchCAST RNA-guided transposition machinery (E. coli BL21(DE3) host, lacZ target)
# assay: relative integration efficiency (T-RL orientation) vs wild-type transposon end (log2 (normalized fold change)); transposon end mutated: right end (5 bp flank + 75 bp right end); higher = more efficient transposition
Quick reference for relative integration efficiency (log2) among some sequences
parameter: relative integration efficiency (log2)

INSERT INTO measurements (seq_text, numeric_readout) VALUES
  ('ACATTTGTTGATACCACCATCAAATGATAATTCCACCCCTAAATTGATAATTATCACACCCAATTTAACTATAACGCTCTGATCATAGTCAGACCAACATTGCTACGACCCGTATTCGCACCGACAC', -5.24),
  ('ACATTTGTTGATACACCCATAAATTGATATTGCCACCCATAAATTGATATTGCTCACACCCATAAATTGATATTGCCTCTGATCATAGTCAGACCAACATTGCTACGACCCGTATTCGCACCGACAC', -0.939),
  ('ACATTTGTTGATACAACCATAAAATGATAATTAATAATTATTTATAATCAGCAACTTAACCACCACCCATAAATTGATAATTATCAACAAACGCCCGGTCGCGGTACTCTGATCATAGTCAGACCAA', -3.21);

----------
# Tested on: VchCAST RNA-guided transposition machinery (E. coli BL21(DE3) host, lacZ target)
# assay: relative integration efficiency (T-RL orientation) vs wild-type transposon end (log2 (normalized fold change)); transposon end mutated: right end (5 bp flank + 75 bp right end); higher = more efficient transposition
parameter: relative integration efficiency (log2)

INSERT INTO results (seq_text, result) VALUES
  ('ACATTTGTTGATACAACCATAAACTGATAATTACACCCATAAAGTGATAATTATCACACCCATAAAGTGATATTGCCTCTGATCATAGTCAGACCAACATTGCTACGACCCGTATTCGCACCGACAC', 0.368),
  ('ACATTTGTTGATACAACCATAAAATGATCATTACACCCATCAATTGATAATTATCACACCCCATTTAACTATAACGCTCTGATCATAGTCAGACCAACATTGCTACGACCCGTATTCGCACCGACAC', -2.76),
  ('ACATTTGTAAAAAAAACCATACGTTGATTTTACGAAACCATACGCTGAAATAATCACACCCATAAATTGAAATTGCCTCTGATCATAGTCAGACCAACATTGCTACGACCCGTATTCGCACCGACAC', -5.81),
  ('ACATTTGTTGATACAACCATAAAATGATAATTACTCTGATCATAGTCAGACCAACATTGCTACCACCCATAAATTGATAATTATCACACCCATAAATTGATATTGCGACCCGTATTCGCACCGACAC', -3.63),
  ('ACATTTGTTGATACACCCATAAATTGATATTGCCAACCATATATTGATATCTCTCACAACCATATATTGATATCTCCTCTGATCATAGTCAGACCAACATTGCTACGACCCGTATTCGCACCGACAC', -1.29),
  ('CAAAATGTTGATACAACCATAAAATGATAATTACACCCATAAATTGATAATTATCACACCCATAAATTGATATTGCCTCTGATCATAGTCAGACCAACATTGCTACGACCCGTATTCGCACCGACAC', -0.331),
  ('ACATTTGTTGATACACCCATAAATTGATAATTACAACCATAAAGTGATATTTATCACACCCATAAATTGATAATTACTCTGATCATAGTCAGACCAACATTGCTACGACCCGTATTCGCACCGACAC', -0.494),
  ('ACATTTGTTGATACAACCATAAAAGGATAATTACACCCATAAATTGATAATTATCCCACCCAATTTAACTATAACGCTCTGATCATAGTCAGACCAACATTGCTACGACCCGTATTCGCACCGACAC', -0.818),
  ('ACATTTGTTGATACAACCATAAAATGATAATTACCCCCATAAATTGATAATTATCACACCCCATTTAACTATAACGCTCTGATCATAGTCAGACCAACATTGCTACGACCCGTATTCGCACCGACAC', -0.917),
  ('ACATTTGTTGATACAACCATAAAATGATAATTACAACCATAAGTTGATATTTTTCACAACCATAAGTTGATATTTTCTCTGATCATAGTCAGACCAACATTGCTACGACCCGTATTCGCACCGACAC', 0.0355);

----------
# System: VchCAST RNA-guided transposition machinery (E. coli BL21(DE3) host, lacZ target)
# assay: relative integration efficiency (T-LR orientation) vs wild-type transposon end (log2 (normalized fold change)); transposon end mutated: right end (5 bp flank + 75 bp right end); higher = more efficient transposition
parameter: relative integration efficiency (log2)

INSERT INTO assay_data (seq_text, tested_system, parameter, numeric_readout) VALUES
  ('ACATTTGTTGATACAACCATAAAGTGATATTTACACCCATAAATTGATAATTATCACACCCATAAATTGATATTGCCTCTGATCATAGTCAGACCAACATTGCTACGACCCGTATTCGCACCGACAC', 'VchCAST RNA-guided transposition machinery (E. coli BL21(DE3) host, lacZ target)', 'relative integration efficiency (log2)', -0.336),
  ('ACATTTGTTGATACAACCATAAACGGATAATTACACCCATAAATTGATAATTATCACACCCATAAATTGATATTGCCTCTGATCATAGTCAGACCAACATTGCTACGACCCGTATTCGCACCGACAC', 'VchCAST RNA-guided transposition machinery (E. coli BL21(DE3) host, lacZ target)', 'relative integration efficiency (log2)', -0.722),
  ('ACATTGGTGGATACAACCATAAAATGATAATTACACCCATAAATTGATCATTATCACACCCAATTTAACTATAACGCTCTGATCATAGTCAGACCAACATTGCTACGACCCGTATTCGCACCGACAC', 'VchCAST RNA-guided transposition machinery (E. coli BL21(DE3) host, lacZ target)', 'relative integration efficiency (log2)', -6.55),
  ('ACATTTGTTGATACAACCATAAAATGATAATTCCACCCCTAAATTGATAATTATCACACCCAATTTAACTATAACGCTCTGATCATAGTCAGACCAACATTGCTACGACCCGTATTCGCACCGACAC', 'VchCAST RNA-guided transposition machinery (E. coli BL21(DE3) host, lacZ target)', 'relative integration efficiency (log2)', -0.0192),
  ('ACATTTGTTGATACAACCATAAAATGATAATTACACCCATAAATTGATCATTATCACCCCCAATTTAACTATAACGCTCTGATCATAGTCAGACCAACATTGCTACGACCCGTATTCGCACCGACAC', 'VchCAST RNA-guided transposition machinery (E. coli BL21(DE3) host, lacZ target)', 'relative integration efficiency (log2)', 1.9),
  ('ACATTTGTTGATACAACCATAAAATGATAATTACACCCATAAATTGATAAAAATCACACCCATAAATTGATATTGCCTCTGATCATAGTCAGACCAACATTGCTACGACCCGTATTCGCACCGACAC', 'VchCAST RNA-guided transposition machinery (E. coli BL21(DE3) host, lacZ target)', 'relative integration efficiency (log2)', 0.324),
  ('ACATTTGTTGATACCACCATCAAATGGTAATTCCACCCATACATTGATAATTATCACACCCAATTTAACTATAACGCTCTGATCATAGTCAGACCAACATTGCTACGACCCGTATTCGCACCGACAC', 'VchCAST RNA-guided transposition machinery (E. coli BL21(DE3) host, lacZ target)', 'relative integration efficiency (log2)', -4.54),
  ('ACATTTGTTAAAAAAACCATACGTTGATTTTACGAAACCATACGCTGAAATAATCACACCCATAAATTGATATTGCCTCTGATCATAGTCAGACCAACATTGCTACGACCCGTATTCGCACCGACAC', 'VchCAST RNA-guided transposition machinery (E. coli BL21(DE3) host, lacZ target)', 'relative integration efficiency (log2)', -5.9),
  ('ACATTTGTTGATACAACCATAAAATGATAATTACACCCATAAATTGATAATTATCACACCCATAAATTGATATTCTCTGATCATAGTCAGACCAACATTGCTACGACCCGTATTCGCACCGACACTG', 'VchCAST RNA-guided transposition machinery (E. coli BL21(DE3) host, lacZ target)', 'relative integration efficiency (log2)', -0.29),
  ('ACATTTGTTGATACAACCATAAAATGATAATTACACCCATAAATTGATAAAATACACACCCATAAATTGATATTGCCTCTGATCATAGTCAGACCAACATTGCTACGACCCGTATTCGCACCGACAC', 'VchCAST RNA-guided transposition machinery (E. coli BL21(DE3) host, lacZ target)', 'relative integration efficiency (log2)', -0.0186),
  ('ACATTTGTTGATACAACCATAAAATGGTAATTCCACCCCTACATTGATAATTATCACACCCAATTTAACTATAACGCTCTGATCATAGTCAGACCAACATTGCTACGACCCGTATTCGCACCGACAC', 'VchCAST RNA-guided transposition machinery (E. coli BL21(DE3) host, lacZ target)', 'relative integration efficiency (log2)', -0.604),
  ('ACATTTGTTGATACAACCATAAAATGATAATTAATAATTATTTATAACACCCATAAATTGATAATTATCACACCCATAAATTGATATTGCCTCTGATCATAGTCAGACCAACATTGCTACGACCCGT', 'VchCAST RNA-guided transposition machinery (E. coli BL21(DE3) host, lacZ target)', 'relative integration efficiency (log2)', -0.494),
  ('ACATTTGTTGATACAACGTATAAATGATAATTACACCCATAAATTGATAATTATCACACCCATAAATTGATATTGCCTCTGATCATAGTCAGACCAACATTGCTACGACCCGTATTCGCACCGACAC', 'VchCAST RNA-guided transposition machinery (E. coli BL21(DE3) host, lacZ target)', 'relative integration efficiency (log2)', -2.43),
  ('ACATTTGTTGATACAACGTTAAAATGATAATTACACCCATAAATTGATAATTATCACACCCATAAATTGATATTGCCTCTGATCATAGTCAGACCAACATTGCTACGACCCGTATTCGCACCGACAC', 'VchCAST RNA-guided transposition machinery (E. coli BL21(DE3) host, lacZ target)', 'relative integration efficiency (log2)', -1.02),
  ('ACATTTGTTGATACAACCATAAAATGATAATTACACCCATAAATTGAGCCGGCGACACAAACGCCCGGTCGCGGTAAGAGGATCATAGTCAGACCAACATTGCTACGACCCGTATTCGCACCGACAC', 'VchCAST RNA-guided transposition machinery (E. coli BL21(DE3) host, lacZ target)', 'relative integration efficiency (log2)', 1.83),
  ('ACATTTGTTGATACAACCATAAGTTGATATTTTCAACCATAAAGTGATATTTATCACACCCATAAATTGATAATTACTCTGATCATAGTCAGACCAACATTGCTACGACCCGTATTCGCACCGACAC', 'VchCAST RNA-guided transposition machinery (E. coli BL21(DE3) host, lacZ target)', 'relative integration efficiency (log2)', -0.0467),
  ('ACATTTGTTGATACAACCATAAAATGATAATTAATAATTATTTATAATCAGCAACCACCCATAAATTGATAATTATCAACAAACGCCCGGTCGCGGTACTCTGATCATAGTCAGACCAACATTGCTA', 'VchCAST RNA-guided transposition machinery (E. coli BL21(DE3) host, lacZ target)', 'relative integration efficiency (log2)', 0.0897),
  ('ACATTTGTTCTATCAACCATAAAATGATAATTACACCCATAAATTGATAATTATCACACCCATAAATTGATATTGCCTCTGATCATAGTCAGACCAACATTGCTACGACCCGTATTCGCACCGACAC', 'VchCAST RNA-guided transposition machinery (E. coli BL21(DE3) host, lacZ target)', 'relative integration efficiency (log2)', -4.42),
  ('ACATTTGTTGATACAACCATAAAATGATAATTACTCTGACACCCATAAATTGATAATTATCAGTGGGTATTTAACTATAACGTCATAGTCAGACCAACATTGCTACGACCCGTATTCGCACCGACAC', 'VchCAST RNA-guided transposition machinery (E. coli BL21(DE3) host, lacZ target)', 'relative integration efficiency (log2)', 1.33),
  ('ACATTTGTTGATACAACCATAAGTTGATATTTTCAACCATAAAGTGATATTTATCACAACCATAAAATGATAATTACTCTGATCATAGTCAGACCAACATTGCTACGACCCGTATTCGCACCGACAC', 'VchCAST RNA-guided transposition machinery (E. coli BL21(DE3) host, lacZ target)', 'relative integration efficiency (log2)', -0.435);
